All values here come from patent US11377442B2.

system tested: NR2F6 (Homo sapiens, UniProt P10588)
Construct: expressed in transfected cells; also transient transfection
Sequence (P10588 whole entry): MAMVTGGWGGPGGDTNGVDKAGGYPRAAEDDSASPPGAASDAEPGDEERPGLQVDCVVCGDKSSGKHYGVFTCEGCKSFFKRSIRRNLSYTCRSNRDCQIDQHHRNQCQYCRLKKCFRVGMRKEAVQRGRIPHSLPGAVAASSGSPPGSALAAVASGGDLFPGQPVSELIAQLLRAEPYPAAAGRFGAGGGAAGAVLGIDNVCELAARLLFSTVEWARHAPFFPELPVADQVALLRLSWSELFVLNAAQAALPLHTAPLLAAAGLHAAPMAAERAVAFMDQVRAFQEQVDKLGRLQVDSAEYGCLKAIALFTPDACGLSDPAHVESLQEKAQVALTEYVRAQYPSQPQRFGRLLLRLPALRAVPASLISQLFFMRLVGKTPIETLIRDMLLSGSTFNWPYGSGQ
assay summary: NR2F6 agonist screening, Firefly signal cmpd/DMSO
Assay type: cell-based
Parameters: unit of the concentration uncertain
experimental conditions: Concentration 10 (unit uncertain); F4
measurement label: Firefly F4, cmpd/DMSO (mean)

// below: answered molecules
Cc1ccc(S(=O)(=O)NCc2cn3ccccc3n2)c(C)c1
0.9
Cc1ccc(S(=O)(=O)NCc2cn3cccc(C)c3n2)cc1C
0.7
Cc1cc(C)c(S(=O)(=O)NCc2nc3nc(C)cc(C)n3n2)c(C)c1
1.0
COc1ccc(Cl)cc1S(=O)(=O)NCc1nc2nc(C)cc(C)n2n1
1.1
Cc1cccn2cc(CNS(=O)(=O)c3ccccc3F)nc12
0.9

I: Cc1ccc(S(=O)(=O)N(Cc2nc3nc(C)c(S)c(C)n3n2)c2ccccc2)cc1
II: COc1ccc(OC)c(S(=O)(=O)NCc2nc3nc(C)cc(C)n3n2)c1
Of I and II , which shows the smaller Firefly F4, cmpd/DMSO (mean) value? // caller expects the label of the chosen entry
II
(II: 0.9, I: 1.3)

---

system tested: NR2F6 (Homo sapiens, UniProt P10588)
Construct: expressed in transfected cells; also transient transfection
assay summary: NR2F6 agonist screening, Firefly signal cmpd/DMSO
Format: cell-based
experimental conditions: Table 13; ratio of Firefly in NR2F6 stable clone F4 to pGL4
measurement label: Firefly, NR2F6 stable (clone F4)/pGL4

// below: answered molecules
O=c1oc2ccc(Cl)cc2cc1S(=O)(=O)c1cc(F)cc(F)c1
6.6
O=c1oc2ccccc2cc1S(=O)(=O)c1ccc(F)c(Cl)c1
5.8
O=c1oc2ccccc2cc1S(=O)(=O)c1cccc(Cl)c1
2.9
O=c1oc2ccc(Cl)cc2cc1S(=O)(=O)c1ccccc1F
6.2
COC(=O)c1ccc2oc(=O)c(S(=O)(=O)c3ccc(F)cc3)cc2c1
7.6

1: COc1ccc2oc(=O)c(S(=O)(=O)c3cccc(Cl)c3)cc2c1
2: Cc1ccc(S(=O)(=O)c2cc3cc(Br)ccc3oc2=O)cc1
Identify the entry with the larger Firefly, NR2F6 stable (clone F4)/pGL4. Options: 1 and 2 // caller expects the label of the chosen entry
2
(2: 6.3, 1: 3.6)

A: O=c1oc2ccccc2cc1S(=O)(=O)c1ccc(Cl)cc1
B: O=C(NCc1ccc(F)cc1)c1ccc2oc(=O)c(S(=O)(=O)c3ccc(F)cc3)cc2c1
Of A and B , which shows the smaller Firefly, NR2F6 stable (clone F4)/pGL4 value? // caller expects the label of the chosen entry
A
(A: 3.1, B: 5.9)

---

Below is a list of entries, each paired with its recorded fold induction at 2 µM value.
Test system: Renilla_ERa
assay summary: Renilla signal in ERα counterscreen (Renilla_ERa)
Type: cell-based
experimental conditions: 2 uM; read-out: Renilla ERalpha transient, cmpd/DMSO (mean)
Kindly provide the number alone.

COC(=O)CNc1c(C#N)c(C(F)(F)F)nc2ccc(OC)cc12 [Compound Z46]
0.9
O=C(O)c1ccc(-n2ncc(Cl)c(Cl)c2=O)cc1 [Compound 44]
1.3
CCCNc1nc(N2CCOCC2)nc(N2CC3CC(C2)c2cccc(=O)n2C3)n1 (stereo not drawn) [Compound 37]
1.1
COc1ccc2nc(C(F)(F)F)c(C#N)c(NCCc3ccc(Cl)cc3)c2c1 [Compound Z39]
1.1
Cc1ccc(CCCNc2c(C#N)c(C(F)(F)F)nc3ccc(Oc4ccccc4)cc23)cc1 [Compound Z42]
1.1

Given the compound COc1nc(NCCC2=CCCCC2)nc(N2CC3CC(C2)c2cccc(=O)n2C3)n1 (stereo not drawn) [Compound 38] , write its reported fold induction at 2 µM.
1.2

Given the compound COc1ccc2nc(C(F)(F)F)c(C#N)c(NCCOc3ccc(Cl)cc3)c2c1 [Compound Z40] , write its reported fold induction at 2 µM.
1

Given the compound CNC(=O)c1cnc2c(C)cc(C)cc2c1NCCCN(C)C [Compound Z30] , write its reported fold induction at 2 µM.
1.1

Given the compound CCOC(=O)c1cnc2c(C)cc(C)cc2c1N1CCCC(N(C)C)C1 (stereo not drawn) [Compound Z27] , write its reported fold induction at 2 µM.
1.2
